assay_method_text: Displacement of [3H]DPDPE from DOR in guinea pig brain membranes measured after 60 mins by scintillation counting method
Assay type: cell membranes, Cavia porcellus, Membrane
quantity_name: pKi
// field semantics: pKi = negative decimal log of concentration (mol/L)

Lookup: Bench note: what pKi did O=C1/C(=C/c2ccccc2)C[C@@]2(O)[C@H]3Cc4ccc(O)c5c4[C@@]2(CCN3CC2CC2)[C@H]1O5 [BNTX] show?
Found: 8.21
